Measured values drawn from ChEMBL document CHEMBL5214890 for this set.

# TGT: Glucagon-like peptide 1 receptor (Homo sapiens, UniProt P43220)
# Sequence (P43220 whole entry): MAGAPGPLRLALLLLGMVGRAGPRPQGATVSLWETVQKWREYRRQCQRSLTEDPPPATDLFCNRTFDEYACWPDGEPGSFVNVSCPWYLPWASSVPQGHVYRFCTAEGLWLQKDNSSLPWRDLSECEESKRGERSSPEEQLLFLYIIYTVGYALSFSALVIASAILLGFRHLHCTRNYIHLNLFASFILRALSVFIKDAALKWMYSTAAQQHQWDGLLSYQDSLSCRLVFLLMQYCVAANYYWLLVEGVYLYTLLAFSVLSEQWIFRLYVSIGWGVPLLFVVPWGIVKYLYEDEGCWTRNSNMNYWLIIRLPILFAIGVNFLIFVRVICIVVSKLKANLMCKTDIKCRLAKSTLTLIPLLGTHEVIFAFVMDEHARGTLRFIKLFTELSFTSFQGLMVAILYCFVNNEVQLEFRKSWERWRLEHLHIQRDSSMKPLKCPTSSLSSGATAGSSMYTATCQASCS
# MEASUREMENT NOTES: Agonist activity at human GLP-1R expressed in HEK293 cells incubated for 30 mins and assessed as increase in cAMP accumulation measured by HTRF assay
# Format: functional, cell-based

| SUBSTANCE | TGT | EC50 [nM] |
| --- | --- | --- |
| H-HSQGTYTNDVTEYLDSRRAQDFIEWLIKGK-NH2 | Glucagon-like peptide 1 receptor (Homo sapiens, UniProt P43220) | 0.12 |
| H-HSQGTYTNDVSKYLDSRRAQDFIEWLIKGKPSSGAPPPS-NH2 | Glucagon-like peptide 1 receptor (Homo sapiens, UniProt P43220) | 0.24 |
| H-HSQGTYTNDVSKYLDSRRAQDFIEWLIKG-NH2 | Glucagon-like peptide 1 receptor (Homo sapiens, UniProt P43220) | 0.56 |
| H-HSQGTYTNDVTEYLDSRRAQDFIEWLIKGKPSSGAPPPS-NH2 | Glucagon-like peptide 1 receptor (Homo sapiens, UniProt P43220) | 0.45 |
| H-HSQGTYTNDVSKYLDSRRAQDFIEWLIKGK-NH2 | Glucagon-like peptide 1 receptor (Homo sapiens, UniProt P43220) | 0.14 |
